Values were extracted from patent US20230303690A1.

# IL-2, % of BMS, at 0.009144947 ug/mL per record follows
Measurement target: human LAG3 expressed on cells (human) (UniProt P18627)
Sequence (P18627 23-525): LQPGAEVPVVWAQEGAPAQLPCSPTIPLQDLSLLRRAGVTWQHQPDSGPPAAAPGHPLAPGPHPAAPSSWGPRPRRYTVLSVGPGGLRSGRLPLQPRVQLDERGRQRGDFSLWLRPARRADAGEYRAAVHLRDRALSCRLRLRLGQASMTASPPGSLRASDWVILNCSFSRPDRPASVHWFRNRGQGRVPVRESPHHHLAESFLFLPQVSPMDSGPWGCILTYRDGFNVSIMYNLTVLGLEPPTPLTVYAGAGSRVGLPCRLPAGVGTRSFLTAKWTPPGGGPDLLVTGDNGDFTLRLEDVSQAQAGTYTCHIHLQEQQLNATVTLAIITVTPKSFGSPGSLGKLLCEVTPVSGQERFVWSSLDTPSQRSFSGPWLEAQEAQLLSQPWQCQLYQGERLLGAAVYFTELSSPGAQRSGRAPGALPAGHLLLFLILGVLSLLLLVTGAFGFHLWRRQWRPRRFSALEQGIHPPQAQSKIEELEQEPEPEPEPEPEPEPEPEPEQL
Assay notes: cell-based or functional assay
Your answer is read as %, so omit the unit and give the number.

Illustrative cases are given below, each with its answer.
sdAb fusion 25-2015-3 (Fc fusion, not shown: a dimerising Fc or GST) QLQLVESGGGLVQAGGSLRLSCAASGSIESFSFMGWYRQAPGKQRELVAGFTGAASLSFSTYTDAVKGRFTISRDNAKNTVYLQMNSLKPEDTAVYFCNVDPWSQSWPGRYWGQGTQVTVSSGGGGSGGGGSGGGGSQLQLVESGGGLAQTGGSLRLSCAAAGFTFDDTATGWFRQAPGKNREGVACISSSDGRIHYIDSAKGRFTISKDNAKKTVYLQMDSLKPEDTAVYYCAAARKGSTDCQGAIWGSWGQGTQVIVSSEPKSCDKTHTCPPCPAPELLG; 7.28
sdAb fusion 25-27-3 (Fc fusion, not shown: a dimerising Fc or GST) QLQLVESGGGLVQAGGSLRLSCAASGSIESFSFMGWYRQAPGKQRELVAGFTGAASLSFSTYTDAVKGRFTISRDNAKNTVYLQMNSLKPEDTAVYFCNVDPWSQSWPGRYWGQGTQVTVSSGGGGSGGGGSGGGGSQVQLVESGGGLVQPGGSLRLSCAASGFTLDYYAIGWFRQAPGKEREGVSCIRSSDGSTYYADSVKGRFTISSDNTKNTVYLQMNSLKPEDTAVYYCATDRYSDCRGPYENWGQGTQVTVSSEPKSCDKTHTCPPCPAPELLG; 2.64
sdAb fusion 25-17-3 (Fc fusion, not shown: a dimerising Fc or GST) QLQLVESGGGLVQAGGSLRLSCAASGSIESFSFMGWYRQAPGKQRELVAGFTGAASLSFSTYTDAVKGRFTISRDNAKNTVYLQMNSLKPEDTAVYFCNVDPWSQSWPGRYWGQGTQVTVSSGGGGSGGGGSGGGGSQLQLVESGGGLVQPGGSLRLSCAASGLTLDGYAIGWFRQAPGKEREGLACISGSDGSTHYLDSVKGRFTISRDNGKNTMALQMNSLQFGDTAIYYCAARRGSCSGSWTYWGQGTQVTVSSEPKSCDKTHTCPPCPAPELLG; 7.44
sdAb fusion 25-2015-1 (Fc fusion, not shown: a dimerising Fc or GST) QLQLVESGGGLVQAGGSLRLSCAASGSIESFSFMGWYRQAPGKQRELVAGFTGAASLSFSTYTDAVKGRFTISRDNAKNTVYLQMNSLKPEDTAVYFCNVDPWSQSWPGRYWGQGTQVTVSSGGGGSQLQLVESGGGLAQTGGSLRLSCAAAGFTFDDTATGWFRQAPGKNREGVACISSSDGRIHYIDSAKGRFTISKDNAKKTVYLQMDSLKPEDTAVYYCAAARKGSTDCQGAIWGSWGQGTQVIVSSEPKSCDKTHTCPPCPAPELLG; 7.32
sdAb fusion 25-17-1 (Fc fusion, not shown: a dimerising Fc or GST) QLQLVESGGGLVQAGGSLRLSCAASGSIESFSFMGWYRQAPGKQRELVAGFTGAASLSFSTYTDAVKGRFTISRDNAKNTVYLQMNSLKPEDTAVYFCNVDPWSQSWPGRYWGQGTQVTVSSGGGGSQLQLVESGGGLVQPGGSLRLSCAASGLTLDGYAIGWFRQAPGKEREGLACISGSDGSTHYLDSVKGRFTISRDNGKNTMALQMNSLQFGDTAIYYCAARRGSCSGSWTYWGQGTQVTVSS; -0.836

Let us move to another entry and its IL-2, % of BMS, at 0.009144947 ug/mL.
Ask: Entry sdAb fusion 25-17-2 (Fc fusion, not shown: a dimerising Fc or GST) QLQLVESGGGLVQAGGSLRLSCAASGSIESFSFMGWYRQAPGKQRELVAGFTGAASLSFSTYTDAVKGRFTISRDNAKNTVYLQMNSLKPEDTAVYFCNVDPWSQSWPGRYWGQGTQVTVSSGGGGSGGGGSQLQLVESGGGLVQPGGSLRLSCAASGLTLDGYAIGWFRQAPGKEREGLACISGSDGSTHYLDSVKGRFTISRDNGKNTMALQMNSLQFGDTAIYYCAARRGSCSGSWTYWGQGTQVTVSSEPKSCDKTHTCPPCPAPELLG : reported IL-2, % of BMS, at 0.009144947 ug/mL = ?
Reply: -0.621
